Entries and their measured % inhibition at 10 nM follow.
target_of_assay: human plasma kallikrein (human, UniProt P03952 20-390; P03952 391-638)
Sequence (P03952 20-390, chain 1 of 2): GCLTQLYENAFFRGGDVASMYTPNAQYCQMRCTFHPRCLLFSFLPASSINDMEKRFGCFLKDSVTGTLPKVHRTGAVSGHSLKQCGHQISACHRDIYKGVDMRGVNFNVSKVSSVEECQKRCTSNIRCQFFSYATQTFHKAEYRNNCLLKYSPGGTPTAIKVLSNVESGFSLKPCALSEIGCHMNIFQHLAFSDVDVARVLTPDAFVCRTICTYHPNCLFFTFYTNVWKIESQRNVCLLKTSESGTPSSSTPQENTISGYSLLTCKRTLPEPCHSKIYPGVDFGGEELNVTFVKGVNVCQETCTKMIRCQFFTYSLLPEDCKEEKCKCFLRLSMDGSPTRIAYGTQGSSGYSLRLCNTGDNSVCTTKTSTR
Sequence (P03952 391-638, chain 2 of 2): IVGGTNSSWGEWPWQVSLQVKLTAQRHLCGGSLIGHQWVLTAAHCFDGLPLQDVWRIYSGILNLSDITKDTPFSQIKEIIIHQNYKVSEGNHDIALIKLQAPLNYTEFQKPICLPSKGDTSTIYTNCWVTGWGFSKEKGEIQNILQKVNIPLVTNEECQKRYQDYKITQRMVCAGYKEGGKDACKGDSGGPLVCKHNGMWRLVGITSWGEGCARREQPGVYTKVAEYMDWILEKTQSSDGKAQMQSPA
test: cell-based or functional assay
Write down the numeric answer in % and omit the unit.

Consider the following illustrative entries.
binder="M209-H07 (Fab, V domains shown) VH: EVQLLESGGGLVQPGGSLRLSCAASGFTFSHYLMTWVRQAPGKGLEWVSYISPSGGHTIYADSVKGRFTISRDNSKNTLYLQMNSLRAEDTAVYYCARVARGIAARQRTSYYDYWGQGTLVTVSS VL: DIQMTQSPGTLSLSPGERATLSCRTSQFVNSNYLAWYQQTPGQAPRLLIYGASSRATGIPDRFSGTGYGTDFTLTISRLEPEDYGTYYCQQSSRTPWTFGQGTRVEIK" data_value=76.1
binder="M206-B10 (Fab, V domains shown, Tested as Fab; printed HC runs into CH1; amber q written Q) VH: EVQLLESGGGLVQPGGSLRLSCAASGFTFSQYLMAWVRQAPGKGLEWVSSIYPSGGWTKYADSVKGRFTISRDNSKNTLYLQMNSLRAEDTAVYYCARVARGIAARSRTSYFDYWGQGTLVTVSS VL: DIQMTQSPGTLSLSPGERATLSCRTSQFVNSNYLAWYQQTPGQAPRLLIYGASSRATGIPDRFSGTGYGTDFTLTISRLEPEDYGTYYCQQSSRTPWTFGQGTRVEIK" data_value=94.7

--- query ---
query: Query % inhibition at 10 nM for M205-H08 (Fab, V domains shown) VH: EVQLLESGGGLVQPGGSLRLSCAASGFTFSDYMMMWVRQAPGKGLEWVSSIVPSGGHTQYADSVKGRFTISRDNSKNTLYLQMNSLRAEDTAVYYCARVARGIAARSRTSYFDYWGQGTLVTVSS VL: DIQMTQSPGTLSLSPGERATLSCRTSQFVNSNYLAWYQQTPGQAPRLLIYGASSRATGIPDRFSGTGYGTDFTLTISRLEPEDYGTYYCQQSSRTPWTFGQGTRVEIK
result: 85.9
